Source listed as paper PMC6156383.

Measurement record for KOP receptor (Homo sapiens, UniProt P41145); quantity recorded: Ki.
Answers are plain numbers, in nM.

O=C(Cc1ccccc1F)O[C@@]12CCC(=O)[C@@H]3Oc4c(O)ccc5c4[C@@]31CCN(CC1CC1)[C@@H]2C5 [Compound 7i]
4.55
O=C(Cc1ccccc1)O[C@@]12CCC(=O)[C@@H]3Oc4c(O)ccc5c4[C@@]31CCN(CC1CC1)[C@@H]2C5 [Compound 7a]
1.14
COc1cccc(CC(=O)O[C@@]23CCC(=O)[C@@H]4Oc5c(O)ccc6c5[C@@]42CCN(CC2CC2)C3C6)c1 [Compound 7e]
1.44

Hi team, please reply with Ki for each item in this list.
1. O=C(Cc1ccc2c(c1)OCO2)O[C@@]12CCC(=O)[C@@H]3Oc4c(O)ccc5c4[C@@]31CCN(CC1CC1)[C@@H]2C5 [Compound 7g]
2. O=C(Cc1ccc(Cl)cc1)O[C@@]12CCC(=O)[C@@H]3Oc4c(O)ccc5c4[C@@]31CCN(CC1CC1)C2C5 [Compound 7j]
3. COc1ccc(CC(=O)O[C@@]23CCC(=O)[C@@H]4Oc5c(O)ccc6c5[C@@]42CCN(CC2CC2)[C@@H]3C6)cc1 [Compound 7f]

Ans.
[1.2, 3.95, 1.9]

---

tgt: NOP receptor (Homo sapiens, UniProt P41146)
Sequence (P41146 whole entry): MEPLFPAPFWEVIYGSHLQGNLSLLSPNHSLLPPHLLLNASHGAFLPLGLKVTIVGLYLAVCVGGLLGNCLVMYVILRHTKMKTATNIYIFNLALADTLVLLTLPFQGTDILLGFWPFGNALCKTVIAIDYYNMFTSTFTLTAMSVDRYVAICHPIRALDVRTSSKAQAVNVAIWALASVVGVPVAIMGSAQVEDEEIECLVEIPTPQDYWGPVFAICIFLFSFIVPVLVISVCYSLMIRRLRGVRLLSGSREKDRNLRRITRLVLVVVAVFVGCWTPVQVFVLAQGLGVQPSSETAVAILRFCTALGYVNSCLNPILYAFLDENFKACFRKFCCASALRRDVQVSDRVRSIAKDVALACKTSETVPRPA
testMethodNotes: [35S]GTPγS binding stimulation (agonist), CHO membranes
measurementContext: [35S]GTPγS stimulation; average ± SD
measuredProperty: pEC50
Answers are plain numbers, as −log10 of the molar value.

Hi team, please reply with pEC50 for each item in this list.
1. Cc1cccc(CC(=O)O[C@@]23CCC(=O)[C@@H]4Oc5c(O)ccc6c5[C@@]42CCN(CC2CC2)[C@@H]3C6)c1 [Compound 7d]
2. O=C(Cc1ccccc1Cl)O[C@@]12CCC(=O)[C@@H]3Oc4c(O)ccc5c4[C@@]31CCN(CC1CC1)[C@@H]2C5 [Compound 7k]
3. COc1ccc(CC(=O)O[C@@]23CCC(=O)[C@@H]4Oc5c(O)ccc6c5[C@@]42CCN(CC2CC2)[C@@H]3C6)cc1 [Compound 7f]

Ans.
1. 6.07
2. 6.09
3. 7.21

Hi team, please reply with pEC50 for each item in this list.
1. Cc1ccccc1CC(=O)O[C@@]12CCC(=O)[C@@H]3Oc4c(O)ccc5c4[C@@]31CCN(CC1CC1)[C@@H]2C5 [Compound 7c]
2. COc1cccc(CC(=O)O[C@@]23CCC(=O)[C@@H]4Oc5c(O)ccc6c5[C@@]42CCN(CC2CC2)C3C6)c1 [Compound 7e]

Ans.
1. 6.97
2. 6.43

---

For each of the compounds below, state its pKi.
tgt: KOP receptor (Homo sapiens, UniProt P41145)
Sequence (P41145 whole entry): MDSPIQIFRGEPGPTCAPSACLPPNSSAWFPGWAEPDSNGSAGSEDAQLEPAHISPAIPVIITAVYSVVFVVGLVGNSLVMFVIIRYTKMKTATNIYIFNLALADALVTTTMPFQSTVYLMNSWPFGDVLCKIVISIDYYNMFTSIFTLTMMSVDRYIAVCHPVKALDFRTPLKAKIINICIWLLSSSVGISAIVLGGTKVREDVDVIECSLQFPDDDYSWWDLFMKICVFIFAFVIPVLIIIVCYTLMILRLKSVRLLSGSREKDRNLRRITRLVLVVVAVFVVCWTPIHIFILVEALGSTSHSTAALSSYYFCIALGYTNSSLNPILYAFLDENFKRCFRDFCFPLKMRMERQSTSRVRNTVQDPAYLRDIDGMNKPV
Give bare numbers, as −log10 of the molar value.

Cc1ccccc1CC(=O)O[C@@]12CCC(=O)[C@@H]3Oc4c(O)ccc5c4[C@@]31CCN(CC1CC1)[C@@H]2C5 [Compound 7c]
8.77
Cc1ccc(CC(=O)O[C@@]23CCC(=O)[C@@H]4Oc5c(O)ccc6c5[C@@]42CCN(CC2CC2)[C@@H]3C6)cc1 [Compound 7b]
8.81
COc1ccccc1CC(=O)O[C@@]12CCC(=O)[C@@H]3Oc4c(O)ccc5c4[C@@]31CCN(CC1CC1)[C@@H]2C5 [Compound 7h]
8.45
O=C(Cc1ccccc1Cl)O[C@@]12CCC(=O)[C@@H]3Oc4c(O)ccc5c4[C@@]31CCN(CC1CC1)[C@@H]2C5 [Compound 7k]
8.87

Here is another compound to look at.
Qu. Request - read-out pKi | tested on KOP receptor (Homo sapiens, UniProt P41145) | compound Cc1cccc(CC(=O)O[C@@]23CCC(=O)[C@@H]4Oc5c(O)ccc6c5[C@@]42CCN(CC2CC2)[C@@H]3C6)c1 [Compound 7d]
Ans. 8.55
